Listed below: apparent KD of K4 kissing-loop reporter values for each entry.
test system: K4 kissing-loop RNA reporter; test: apparent KD of K4 kissing-loop reporter; higher = weaker reporter binding; settings: Eterna round: R107; input ligand: none;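 note: bound reporter read as fluorescence of individual clusters on recovered sequencing chips by microscopy, with normalized cluster intensities fitted with a binding model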
Write the number in µM without appending the unit.

A selection of reference data follows.
residue.codes	apparent KD of K4 kissing-loop reporter, µM
GCCGUACGCAUGGAUACCAGCAUCGACUCAUAUACAGUGAUGUUGUGUAAUGACCUCAUUUGCCCUUGGCAGCCAUGCGUACGGC	0.62
GCGAAGAGAGAAGGAUAUUAGUAAUGCGUCAUGCGCCCUUACCAGUUAGUGAUGUUAACAAUACAUUAAGAAGGUCUCGGAAUCC [theeternabot_sameState_KL_FMN_B_50]	0.187
UUAAUAAUUCAAGGAUAUGUUUUUUUUUUCGAGUGAUGUUCGGAAUUAAUAAAUUUAAAAGAUUAUACAGAAGGUGAUAAAUAGU [Cynwulf-mod#1]	0.0883
AGCGGCCAGUCGGCCGCCACUCCAGGCAGUGAUGUUGCGAAGUUUCUACUAGAGUGAUGUUCUAAGAGGACCGGGACUGACGUAA [Exclusion Tryptophan B Gf 9]	0.253
CGUUUAUAGCAGGAUACCAGUACCCAUUAUGUACGUUUAUAGUAGAGUGAUGUUCUAAAGUACCCUUGGCAGCUUCCCGUGACCC [ExTheophylB.Z]	0.131
UGACUGGACUGAAGGAGCGCUAAAACUCCUAGUGAUGUUGGGAAAACGAGACAAAGUCUCGAGCAGGUAGGUCGCAGUCUAGUCU [ArgBS 22 #SwitchBubble #StaticStem]	0.253

For K4 kissing-loop RNA reporter, provide apparent KD of K4 kissing-loop reporter of AUUAAUAACAGAGGAUAUGCAUUAUUAUUAUUUUUAAAUAAUAAAUGCAGUGAUGUUGCAUAUUAAGCAGAAGGCUGAUUUAUUU [JR_SSFMNB_Sub011] please.
0.484

Value wanted: apparent KD of K4 kissing-loop reporter (K4 kissing-loop RNA reporter) of entry GCAGUGAUGUUGCGGAUGUACAGUGGCGUGCGAGGACCGGUACGGCCGCCACUCGUACAGAGCCAGCUAAUACAUCGAUUGGUGA [whbob_SS_Tryp_A_m7]
0.206

Lab note: need apparent KD of K4 kissing-loop reporter for AGCAUUUUCAGAAGGAGCGUGAAUUAUUCAUAAUUAUAUUAUACGAGUGAUGUUCGUAUUUCACAGGUAGGUCGCUGAUAUAGCA [JR_SSArginiB_Sub002] on K4 kissing-loop RNA reporter, anyone have it?
0.0501

Value wanted: apparent KD of K4 kissing-loop reporter (K4 kissing-loop RNA reporter) of entry UUACUACCCAGUGAUGUUGGGUAGCGGCGGCGAGGACCGGUACGGCCGCCACUCGGCGCACGGGAGUGAUGUUCCUAAGAAUAAA [Same State Tryptophan A GF 9]
0.335

Hi! What's the reported apparent KD of K4 kissing-loop reporter for "ACGUGCACUAGUGAUGUUGGAAAAUAGGAAGGAGCGGGCGAAAGCCCAGGUAGGUCGCCUAAUAGCACGAGCCACGAAAGUGGCA" on K4 kissing-loop RNA reporter?
0.645

Record AAGUGUGUGGCGGCCGCCACUAGAAUCCAGUGAUGUUGGAGAUAUCACGUAAGUGAUAUCCAUCAUAGGACCGGGCCAUAUAGAA [Same State - Tryptophan B (Freestyle 18)] : what is its apparent KD of K4 kissing-loop reporter with K4 kissing-loop RNA reporter?
0.945

The measured values listed here are drawn from the supplement of paper PMC9170038.
